Record form. Attribute: inhibition at 1 µM. Fill in for each entry.
Molecular target: human recombinant histamine H1 receptor (Homo sapiens, UniProt P35367)
Construct: expressed in transfected cells; host or cells: CHO-K1
Sequence (P35367 whole entry): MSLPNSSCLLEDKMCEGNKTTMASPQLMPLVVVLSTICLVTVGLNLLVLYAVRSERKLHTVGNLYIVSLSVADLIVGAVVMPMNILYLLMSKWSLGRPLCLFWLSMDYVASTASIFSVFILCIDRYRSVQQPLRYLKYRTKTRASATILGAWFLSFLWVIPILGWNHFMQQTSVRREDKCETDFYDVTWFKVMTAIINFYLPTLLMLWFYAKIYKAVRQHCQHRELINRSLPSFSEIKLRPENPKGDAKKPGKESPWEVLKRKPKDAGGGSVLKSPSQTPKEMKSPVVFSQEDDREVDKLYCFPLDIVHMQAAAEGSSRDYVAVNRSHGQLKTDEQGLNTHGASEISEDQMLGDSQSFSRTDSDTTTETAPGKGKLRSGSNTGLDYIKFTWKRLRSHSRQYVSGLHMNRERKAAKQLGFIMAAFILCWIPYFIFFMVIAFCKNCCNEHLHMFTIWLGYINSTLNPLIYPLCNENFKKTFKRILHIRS
Experiment: Histamine H1 radioligand binding ([3H]Pyrilamine)
Conditions: read-out: Histamine H1 Binding (1 μM), percent inhibition of specific binding; compound at 1 μM; 1.2 nM [3H]Pyrilamine
In your response, the unit should come after the numeric value.

**Q:** Could you share which inhibition at 1 µM value was measured for COc1ccc(-c2cscc2-n2c3c(c4cc(C)ccc42)CN(C)CC3)cc1 [Compound 37] ?
**A:** 6%

**Q:** Next record, please: Cc1ccc2c(c1)c1c(n2-c2cccc(-c3ccc(O)nc3)c2)CCN(C)C1 [Compound 52]
**A:** 14%

**Q:** Also Cc1cc(C)c2c(c1)c1c(n2-c2cccc(-c3ccncc3)c2)CCN(C)C1 [Compound 57] , if possible.
**A:** 45%

**Q:** And what about the molecule Cc1ccc2c(c1)c1c(n2-c2cccc(-c3ccc(F)nc3)c2)CCN(C)C1 [Compound 44] ?
**A:** 41%

**Q:** Input CN1CCc2c(c3cc(Cl)ccc3n2-c2cscc2-c2cccnc2)C1 [Compound 27]
**A:** 76%

**Q:** Now try Cc1ccc2c(c1)c1c(n2-c2ccccc2-c2ccncc2)CCN(C)C1 [Compound 5] .
**A:** 38%

**Q:** And what about the molecule Cc1ccc2c(c1)c1c(n2-c2cccc(-c3ccc(S(C)(=O)=O)cc3)c2)CCN(C)C1 [Compound No. 131] ?
**A:** 20%

**Q:** CNC(=O)c1ccc(-c2ccccc2-n2c3c(c4cc(C)ccc42)CN(C)CC3)cc1 [Compound No. 72] ?
**A:** 18%

----------
Molecular target: rat adrenergic α1A receptor (Rattus norvegicus)
Construct: rat adrenergic α1A receptor obtained from Wistar Rat submaxillary glands; from tissue; host or cells: Wistar rat submaxillary glands
Sequence (P43140 whole entry): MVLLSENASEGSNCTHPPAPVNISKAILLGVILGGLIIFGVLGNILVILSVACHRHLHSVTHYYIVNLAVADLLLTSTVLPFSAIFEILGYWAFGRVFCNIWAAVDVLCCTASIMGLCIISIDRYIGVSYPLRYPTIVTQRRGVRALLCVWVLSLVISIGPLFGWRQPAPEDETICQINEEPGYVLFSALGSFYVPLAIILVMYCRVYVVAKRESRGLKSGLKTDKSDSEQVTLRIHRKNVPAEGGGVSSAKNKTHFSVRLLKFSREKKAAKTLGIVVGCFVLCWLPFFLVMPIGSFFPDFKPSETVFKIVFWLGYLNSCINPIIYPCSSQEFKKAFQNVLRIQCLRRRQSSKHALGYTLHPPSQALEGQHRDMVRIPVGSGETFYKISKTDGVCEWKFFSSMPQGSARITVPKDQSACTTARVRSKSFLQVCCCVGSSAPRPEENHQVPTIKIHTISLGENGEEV
Assay: Adrenergic α1A radioligand binding ([3H]Prazosin)
Settings: read-out: Adrenergic (0.1 μM) a1A, percent inhibition of specific binding; compound at 0.1 μM; 0.25 nM [3H]Prazosin
Lab note: compare inhibition at 0.1 µM against 10%. Equal or greater, write Fulfilled. Smaller, write Not fulfilled.

**Q:** inhibition at 0.1 µM >= 10% for Cc1csc(-c2cccc(-n3c4c(c5cc(C)ccc53)CN(C)CC4)c2)c1 ?
**A:** Not fulfilled

**Q:** And then Cc1cc(C)c2c(c1)c1c(n2-c2cccc(-c3ccncc3)c2)CCN(C)C1 , what is it?
**A:** Not fulfilled

**Q:** Cc1ccc2c(c1)c1c(n2-c2cccc(-c3sccc3C)c2)CCN(C)C1 , same question.
**A:** Fulfilled

**Q:** Another molecule to check: Cc1ccc2c(c1)c1c(n2-c2cccc3ccncc23)CCN(C)C1
**A:** Not fulfilled

**Q:** Item: Cc1ccc2c(c1)c1c(n2-c2ccccc2-c2ccncc2)CCN(C)C1
**A:** Fulfilled

**Q:** What do you get for CC(=O)Nc1ccc(-c2ccc(-n3c4c(c5cc(C)ccc53)CN(C)CC4)nc2)cn1 ?
**A:** Fulfilled

**Q:** Input Cc1ccc2c(c1)c1c(n2-c2ccccc2-c2sccc2C)CCN(C)C1
**A:** Fulfilled

**Q:** Same read-out for Cc1ccc2c(c1)c1c(n2-c2cscc2-c2ccc3cnccc3c2)CCN(C)C1 ?
**A:** Fulfilled

**Q:** Continue with Cc1ccc2c(c1)c1c(n2-c2cccc(-c3ccc4[nH]cnc4c3)c2)CCN(C)C1
**A:** Not fulfilled

**Q:** Again, but for Cc1ccc2c(c1)c1c(n2-c2cnc3ccccc3c2)CCN(C)C1
**A:** Fulfilled

**Q:** Subsequent entry: Cc1ccc2c(c1)c1c(n2-c2cccc(-c3cn[nH]c3)c2)CCN(C)C1
**A:** Not fulfilled

**Q:** Then this molecule: Cc1ccc2c(c1)c1c(n2-c2ccccc2-c2cnc(N(C)C)nc2)CCN(C)C1
**A:** Fulfilled

**Q:** Quick one: Cc1ccc2c(c1)c1c(n2-c2ccc(-c3c(C)noc3C)cn2)CCN(C)C1
**A:** Fulfilled

**Q:** Repeat for the following molecule: Cc1ccc2c(c1)c1c(n2-c2ccc(-c3cnc(N(C)C)nc3)cn2)CCN(C)C1
**A:** Fulfilled

**Q:** Subsequent entry: Cc1ccc2c(c1)c1c(n2-c2cscc2-c2c(C)noc2C)CCN(C)C1
**A:** Not fulfilled

**Q:** Check Cc1csc(-c2cscc2-n2c3c(c4cc(C)ccc42)CN(C)CC3)c1 too.
**A:** Fulfilled

**Q:** Ok, now Cc1ccc2c(c1)c1c(n2-c2cccc(-c3cc4ccccc4s3)c2)CCN(C)C1
**A:** Not fulfilled

----------
Biological target: human recombinant serotonin (5-Hydroxytryptamine) 5-HT7 receptor (Homo sapiens, UniProt P34969)
Construct: expressed in transfected cells; host or cells: CHO
Sequence (P34969 whole entry): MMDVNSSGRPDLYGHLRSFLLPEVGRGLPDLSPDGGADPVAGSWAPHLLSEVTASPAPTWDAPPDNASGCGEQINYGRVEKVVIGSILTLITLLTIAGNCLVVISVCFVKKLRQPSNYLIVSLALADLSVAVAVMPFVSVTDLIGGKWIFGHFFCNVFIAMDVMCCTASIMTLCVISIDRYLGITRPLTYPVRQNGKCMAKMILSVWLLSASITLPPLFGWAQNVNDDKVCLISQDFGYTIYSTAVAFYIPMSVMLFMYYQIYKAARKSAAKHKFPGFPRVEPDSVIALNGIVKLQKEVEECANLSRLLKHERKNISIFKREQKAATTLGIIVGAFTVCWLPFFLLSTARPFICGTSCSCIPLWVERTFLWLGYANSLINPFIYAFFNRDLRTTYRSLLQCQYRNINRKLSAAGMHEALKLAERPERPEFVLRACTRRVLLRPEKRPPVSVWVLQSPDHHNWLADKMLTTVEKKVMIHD
Assay: Serotonin 5-HT7 radioligand binding ([3H]LSD)
Conditions: compound at 0.1 μM; read-out: Inhibition of ligand binding, Serotonin 5-HT7 (percent inhibition of specific binding)
Hi there, I'd appreciate the recorded inhibition at 0.1 µM for every entry that follows.
Give the quantity in %, number only.

**Q:** Fill in: inhibition at 0.1 µM of Cc1ccc2c(c1)c1c(n2-c2ccc(-c3ccnn3C)cn2)CCN(C)C1 [Compound No. 146] is ___
**A:** 16

**Q:** Please give the result for Cc1ccc2c(c1)c1c(n2-c2ccc(-c3cnn(C)c3)cn2)CCN(C)C1 [Compound No. 134] too.
**A:** 4

**Q:** Then this molecule: Cc1csc(-c2cscc2-n2c3c(c4cc(C)ccc42)CN(C)CC3)c1 [Compound 50]
**A:** 97

**Q:** And then Cc1ccc2c(c1)c1c(n2-c2cccc(-c3ccc(O)nc3)c2)CCN(C)C1 [Compound 52] , what is it?
**A:** 14

----------
Provide the recorded inhibition at 1 µM for the entries that follow.
Target: human recombinant dopamine D2L receptor (Homo sapiens)
Construct: expressed in transfected cells; host or cells: CHO
Sequence (P14416 whole entry): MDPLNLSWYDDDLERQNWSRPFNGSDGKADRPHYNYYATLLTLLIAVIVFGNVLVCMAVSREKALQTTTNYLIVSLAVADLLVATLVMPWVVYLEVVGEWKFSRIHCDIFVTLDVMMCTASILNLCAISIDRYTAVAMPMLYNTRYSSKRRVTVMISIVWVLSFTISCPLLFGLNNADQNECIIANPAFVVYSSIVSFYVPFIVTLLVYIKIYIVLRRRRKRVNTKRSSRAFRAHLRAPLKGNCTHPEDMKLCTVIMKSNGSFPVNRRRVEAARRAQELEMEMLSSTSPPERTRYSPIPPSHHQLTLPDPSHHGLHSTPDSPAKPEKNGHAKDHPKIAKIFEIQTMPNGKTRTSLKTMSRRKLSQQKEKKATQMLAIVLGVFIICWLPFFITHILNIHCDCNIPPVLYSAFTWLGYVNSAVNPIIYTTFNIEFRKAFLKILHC
Test: Dopamine D2L radioligand binding ([3H]Spiperone)
Conditions: read-out: Dopamine D2L (1 μM), percent inhibition of specific binding; compound at 1 μM; 0.16 nM [3H]Spiperone
Give your result in % as a bare value.

**Q:** Fill in the blank: the reported inhibition at 1 µM of Cc1ccc2c(c1)c1c(n2-c2cccc(-c3cnc(N(C)C)nc3)c2)CCN(C)C1 is ____.
**A:** 17

**Q:** Another: Cc1ccc2c(c1)c1c(n2-c2ccccc2-c2cccc3[nH]ncc23)CCN(C)C1
**A:** 3

**Q:** # repeat for Cc1ccc2c(c1)c1c(n2-c2cccc(-c3ccc4[nH]cnc4c3)c2)CCN(C)C1
**A:** 22

**Q:** Check Cc1ccc2c(c1)c1c(n2-c2cccc(-c3cccn3C)c2)CCN(C)C1 too.
**A:** 12

**Q:** Please answer likewise for Cc1ccc2c(c1)c1c(n2-c2cccc3cnccc23)CCN(C)C1
**A:** 0

**Q:** Please give the result for Cc1ccc2c(c1)c1c(n2-c2cccc(-c3c(C)noc3C)c2)CCN(C)C1 too.
**A:** 29

**Q:** Param item: Cc1ccc2c(c1)c1c(n2-c2ccc(-c3ccc(F)cc3)cn2)CCN(C)C1
**A:** -4

**Q:** Would you mind doing Cc1ccc2c(c1)c1c(n2-c2ccc(-c3sccc3C)cn2)CCN(C)C1 as well?
**A:** 17

**Q:** Also Cc1ccc2c(c1)c1c(n2-c2ccc(-c3ccnn3C)cn2)CCN(C)C1 , if possible.
**A:** 5

**Q:** And then CC(=O)Nc1ccc(-c2cscc2-n2c3c(c4cc(C)ccc42)CN(C)CC3)cn1 , what is it?
**A:** 10

**Q:** Consider next the molecule Cc1ccc2c(c1)c1c(n2-c2ccc3cnccc3c2)CCN(C)C1 in the same way.
**A:** 53

**Q:** For Cc1ccc2c(c1)c1c(n2-c2ccc(-c3ccc4c(ccn4C)c3)cn2)CCN(C)C1 then?
**A:** 15

**Q:** CNC(=O)c1ccc(-c2cscc2-n2c3c(c4cc(C)ccc42)CN(C)CC3)cn1 ?
**A:** 21

**Q:** Field entry: Cc1ccc2c(c1)c1c(n2-c2cccc(-c3cnn(C)c3)c2)CCN(C)C1
**A:** 20

**Q:** Also, Cc1ccc2c(c1)c1c(n2-c2ccccc2-c2ccc(C)nc2)CCN(C)C1 please.
**A:** 13

**Q:** Request: Cc1ccc2c(c1)c1c(n2-c2ccccc2-c2cnc(N(C)C)nc2)CCN(C)C1
**A:** 12

**Q:** Next record, please: Cc1ccc2c(c1)c1c(n2-c2ccc(C)nc2)CCN(C)C1
**A:** 16

----------
Hi there, I'd appreciate the recorded inhibition at 0.1 µM for every entry that follows.
Target: human recombinant serotonin (5-Hydroxytryptamine) 5-HT2A receptor (Homo sapiens)
Construct: expressed in transfected cells; host or cells: CHO-K1
Sequence (P28223 whole entry): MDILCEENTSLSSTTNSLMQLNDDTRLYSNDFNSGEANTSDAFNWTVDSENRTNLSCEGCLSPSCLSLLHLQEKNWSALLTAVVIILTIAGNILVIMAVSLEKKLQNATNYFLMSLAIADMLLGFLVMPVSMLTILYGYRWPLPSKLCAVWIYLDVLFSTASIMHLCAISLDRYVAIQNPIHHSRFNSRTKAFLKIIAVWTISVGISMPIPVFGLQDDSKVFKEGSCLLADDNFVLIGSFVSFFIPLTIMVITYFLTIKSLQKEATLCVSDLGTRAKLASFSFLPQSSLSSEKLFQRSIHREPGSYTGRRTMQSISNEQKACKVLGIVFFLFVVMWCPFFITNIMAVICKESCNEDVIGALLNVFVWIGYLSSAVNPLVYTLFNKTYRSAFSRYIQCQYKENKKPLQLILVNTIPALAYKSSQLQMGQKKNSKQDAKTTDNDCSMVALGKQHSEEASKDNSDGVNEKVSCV
Experiment: Serotonin 5-HT2A radioligand binding ([3H]Ketanserin)
Settings: compound at 0.1 μM; read-out: Inhibition of ligand binding, Serotonin 5-HT2A (percent inhibition of specific binding)
Quick note: give the figure in %, leave out the unit.

**Q:** // inhibition at 0.1 µM lookup, key: Cc1ccc2c(c1)c1c(n2-c2cccc3cnccc23)CCN(C)C1
**A:** 54

**Q:** How about Cc1ccc2c(c1)c1c(n2-c2cccs2)CCN(C)C1 ?
**A:** 94

**Q:** Queued: Cc1ccc2c(c1)c1c(n2-c2ccoc2)CCN(C)C1
**A:** 72
